Parameter EC50: see the listing below.
# TARGET_ENTITY: Toll-like receptor 2 (Homo sapiens, UniProt O60603)
# Sequence (O60603 whole entry): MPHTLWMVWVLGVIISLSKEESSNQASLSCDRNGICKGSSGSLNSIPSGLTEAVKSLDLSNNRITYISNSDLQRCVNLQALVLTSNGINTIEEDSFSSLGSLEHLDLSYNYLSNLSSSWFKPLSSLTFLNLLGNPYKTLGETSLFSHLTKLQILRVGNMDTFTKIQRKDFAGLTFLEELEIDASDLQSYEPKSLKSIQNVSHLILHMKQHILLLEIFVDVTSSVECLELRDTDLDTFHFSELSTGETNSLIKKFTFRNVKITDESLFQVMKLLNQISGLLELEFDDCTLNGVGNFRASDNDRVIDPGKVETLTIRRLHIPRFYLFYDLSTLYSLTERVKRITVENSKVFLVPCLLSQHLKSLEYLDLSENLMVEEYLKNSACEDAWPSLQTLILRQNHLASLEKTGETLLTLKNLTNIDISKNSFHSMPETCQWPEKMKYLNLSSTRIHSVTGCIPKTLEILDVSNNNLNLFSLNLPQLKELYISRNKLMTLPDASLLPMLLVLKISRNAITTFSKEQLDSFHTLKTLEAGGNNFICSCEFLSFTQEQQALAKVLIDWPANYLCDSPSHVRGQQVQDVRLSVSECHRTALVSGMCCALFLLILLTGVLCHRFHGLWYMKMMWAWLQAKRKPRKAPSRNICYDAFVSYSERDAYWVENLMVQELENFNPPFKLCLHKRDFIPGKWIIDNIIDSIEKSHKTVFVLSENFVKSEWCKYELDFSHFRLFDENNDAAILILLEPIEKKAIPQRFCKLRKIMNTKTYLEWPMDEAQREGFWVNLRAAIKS
# ASSAY_PROCEDURE: Agonist activity at human TLR2 expressed in HEK293 cells assessed as NF-kappaB induction measured soluble alkaline phosphatase after 12 hrs by spectrophotometric analysis

Known EC50 results, listed for orientation:
# STRUCTURE_NOTATION, EC50
rows = [
    ("CCOCCOCCOCCCNCC(=O)OC[C@H](CSC[C@H](N)C(=O)N[C@@H](CO)C(=O)O)OC(=O)CNCCCOCCOCCOCC", "> 1000 nM"),
    ("CCCCCCCCCCCCCCCC(=O)OC[C@H](CSC(C)(C)[C@@H](N)C(=O)N[C@@H](CO)C(=O)OC)OC(=O)CCCCCCCCCCCCCCC", "> 1000 nM"),
]

Please look at the following compound next.
Asked: Given the compound CCCCCCCCCCCCCCCCOC(=O)CSC[C@H](N)C(=O)N[C@@H](CO)C(=O)OC , what is its reported EC50?
Given back: > 1000 nM
